The compounds listed here are annotated with their inhibition.
target entity: FLT3 (human)
assay: Caliper, Mobility shift assay off-chip
conditions used: compound 1.0 µM
Report only the number, with the unit % understood.

Study these solved cases before continuing.
[[record]]
compound = "Cn1cc(-c2cnc3ccc4ccc(CS(=O)(=O)CCc5ccccn5)cc4c(=O)c3c2)cn1"
recorded_metric = "inhibition"
scale_unit = "%"
readout_number = 24.2

[[record]]
compound = "Cn1cc(-c2cnc3ccc4ccc(CS(=O)(=O)NCC5CCCCN5)cc4c(=O)c3c2)cn1 (stereo not given)"
recorded_metric = "inhibition"
scale_unit = "%"
readout_number = 36.8

[[record]]
compound = "O=C(CCc1ccc2ccc3ncc(C4CCNCC4)cc3c(=O)c2c1)NCc1ccccn1"
recorded_metric = "inhibition"
scale_unit = "%"
readout_number = -4

[[record]]
compound = "Cn1cc(-c2cnc3ccc4ccc(CS(N)(=O)=O)cc4c(=O)c3c2)cn1"
recorded_metric = "inhibition"
scale_unit = "%"
readout_number = 48.8


Assign inhibition to the following record: CN(c1ccc2ccc3ncc(-c4cnn(C)c4)cc3c(=O)c2c1)S(=O)(=O)NCc1ccccn1 62.9

----------
System: ABL1 (human), P00519 [T315I]
assay: Caliper, Mobility shift assay off-chip
conditions used: compound 0.1 µM
The compounds listed here are annotated with their inhibition.
Report only the number, with the unit % understood.

[[record]]
compound = "O=C(CCc1ccc2ccc3ncc(C4CCNCC4)cc3c(=O)c2c1)NCc1ccccn1"
recorded_metric = "inhibition"
scale_unit = "%"
readout_number = 2.7


In the following, a different compound is considered.
Assign inhibition to the following record: CN(c1ccc2ccc3ncc(-c4cnn(C)c4)cc3c(=O)c2c1)S(=O)(=O)NCc1ccccn1 3.3

----------
target entity: CAMK4 (human) (UniProt Q16566)
Sequence (Q16566 whole entry, looked up): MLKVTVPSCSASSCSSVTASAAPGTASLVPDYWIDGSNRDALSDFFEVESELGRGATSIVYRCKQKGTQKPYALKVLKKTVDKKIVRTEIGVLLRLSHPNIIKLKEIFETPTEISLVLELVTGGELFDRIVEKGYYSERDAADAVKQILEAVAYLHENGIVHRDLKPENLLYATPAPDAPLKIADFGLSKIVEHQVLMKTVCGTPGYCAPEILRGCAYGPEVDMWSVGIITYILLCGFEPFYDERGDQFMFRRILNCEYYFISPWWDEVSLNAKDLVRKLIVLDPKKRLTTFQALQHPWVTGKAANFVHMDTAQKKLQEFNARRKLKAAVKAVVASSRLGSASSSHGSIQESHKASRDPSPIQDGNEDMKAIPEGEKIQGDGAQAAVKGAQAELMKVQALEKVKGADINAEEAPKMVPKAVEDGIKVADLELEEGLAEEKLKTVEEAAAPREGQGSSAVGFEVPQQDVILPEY
assay: Caliper, Mobility shift assay off-chip
conditions used: compound 0.1 µM
The compounds listed here are annotated with their inhibition.
Report only the number, with the unit % understood.

Study these solved cases before continuing.
[[record]]
compound = "CN(c1ccc2ccc3ncc(-c4cnn(C)c4)cc3c(=O)c2c1)S(=O)(=O)NCc1ccccn1"
scale_unit = "%"
readout_number = -0.2

[[record]]
compound = "O=c1c2cc(CS(=O)(=O)NCc3ccccn3)ccc2ccc2ncc(C3CCNCC3)cc12"
scale_unit = "%"
readout_number = -12.8

[[record]]
compound = "Cn1cc(-c2cnc3ccc4ccc(CS(=O)(=O)NCC5CCCCN5)cc4c(=O)c3c2)cn1 (configuration not stated)"
scale_unit = "%"
readout_number = -1.9


Assign inhibition to the following record: Cn1cc(-c2cnc3ccc4ccc(CS(=O)(=O)NC5CCCCC5)cc4c(=O)c3c2)cn1 2.3

Assign inhibition to the following record: Cn1cc(-c2cnc3ccc4ccc(CS(=O)(=O)CCc5ccccn5)cc4c(=O)c3c2)cn1 -0.1

Assign inhibition to the following record: Cn1cc(-c2cnc3ccc4ccc(CS(N)(=O)=O)cc4c(=O)c3c2)cn1 -1.6

Assign inhibition to the following record: O=C(CCc1ccc2ccc3ncc(C4CCNCC4)cc3c(=O)c2c1)NCc1ccccn1 -1.7

----------
target entity: MAPKAPK2 (human) (UniProt P49137)
Sequence (P49137 whole entry, looked up): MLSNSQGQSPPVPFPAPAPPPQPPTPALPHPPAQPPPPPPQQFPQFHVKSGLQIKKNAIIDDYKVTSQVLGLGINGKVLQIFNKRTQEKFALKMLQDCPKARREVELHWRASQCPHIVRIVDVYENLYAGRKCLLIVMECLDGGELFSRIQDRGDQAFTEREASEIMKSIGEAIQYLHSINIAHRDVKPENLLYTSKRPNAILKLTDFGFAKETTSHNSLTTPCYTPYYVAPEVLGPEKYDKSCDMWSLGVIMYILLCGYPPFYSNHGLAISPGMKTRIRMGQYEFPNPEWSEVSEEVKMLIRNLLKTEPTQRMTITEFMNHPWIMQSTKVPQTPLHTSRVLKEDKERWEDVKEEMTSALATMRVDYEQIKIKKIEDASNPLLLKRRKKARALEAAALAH
assay: Caliper, Mobility shift assay off-chip
conditions used: compound 0.1 µM
recorded metric: inhibition

Study these solved cases before continuing.
[[record]]
molecule = "Cn1cc(-c2cnc3ccc4ccc(CS(=O)(=O)NCC5CCCCN5)cc4c(=O)c3c2)cn1 (configuration not stated)"
recorded_metric = "inhibition"
result = "7.6%"

[[record]]
molecule = "Cn1cc(-c2cnc3ccc4ccc(CS(=O)(=O)CCc5ccccn5)cc4c(=O)c3c2)cn1"
recorded_metric = "inhibition"
result = "-14.7%"

[[record]]
molecule = "Cn1cc(-c2cnc3ccc4ccc(CS(N)(=O)=O)cc4c(=O)c3c2)cn1"
recorded_metric = "inhibition"
result = "-2.6%"

[[record]]
molecule = "O=C(CCc1ccc2ccc3ncc(C4CCNCC4)cc3c(=O)c2c1)NCc1ccccn1"
recorded_metric = "inhibition"
result = "-1.1%"


Provide inhibition, recorded with MAPKAPK2 (human) (UniProt P49137), of O=c1c2cc(CS(=O)(=O)NCc3ccccn3)ccc2ccc2ncc(C3CCNCC3)cc12 -1.9%

Provide inhibition, recorded with MAPKAPK2 (human) (UniProt P49137), of CN(c1ccc2ccc3ncc(-c4cnn(C)c4)cc3c(=O)c2c1)S(=O)(=O)NCc1ccccn1 -0.4%

Provide inhibition, recorded with MAPKAPK2 (human) (UniProt P49137), of Cn1cc(-c2cnc3ccc4ccc(CS(=O)(=O)NC5CCCCC5)cc4c(=O)c3c2)cn1 -0.9%
